- SYSTEM_TESTED: Gal(b1-3)GlcNAc
- EXPERIMENT: glycan array binding signal (z-score within array); higher = stronger binding
- MEASUREMENT_CONDITIONS: glycan notation: IUPAC condensed, linker removed
This is one part of a sample in which the strongest signals are shown more often than they occur.
As shown below, each of these binders has a reported glycan array binding signal (z-score) value.
RECORDED_ENDPOINT: glycan array binding signal (z-score)

INSERT INTO results (binder, recorded_endpoint, recorded_measurement) VALUES
  ('SRS2 (Toxoplasma gondii), O15695 (protein) MATRASLARQKTGAACLAVLTASPSVVAAKPWKRWVGVSVILASAFAVGVSAGPPYRYEPEKFTCRPKKGILSQWVSLLYQVQHNITFACEEATPVPTTLISEEHGLMVCAENMTPEECEANPAPLSAFLPGATKEWVTGDSVLTGLKISVPESQYPANAKSFRVGCRHNTKTGNTCMLTIHVEPRDPAVERQEARCSYTENSTLPKIFVTKDSNTMTLACGPHGAPMPESYTENYCSTPDTCDEKPFTSVIPGYLSKWFFGDPKSPLGARVRIPPEQIPSSPQINYFGCTGPTEGEGPKYNCTVPVPLGGGDPSEGSRPGGGSGGGKRGGGQGGGGSLAGFDFRQGSARHSLPSRMALSASALLAMTALAY', 'glycan array binding signal (z-score)', -0.506),
  ('Epa7 (Candida glabrata), Q6DTM6_CANGB (protein) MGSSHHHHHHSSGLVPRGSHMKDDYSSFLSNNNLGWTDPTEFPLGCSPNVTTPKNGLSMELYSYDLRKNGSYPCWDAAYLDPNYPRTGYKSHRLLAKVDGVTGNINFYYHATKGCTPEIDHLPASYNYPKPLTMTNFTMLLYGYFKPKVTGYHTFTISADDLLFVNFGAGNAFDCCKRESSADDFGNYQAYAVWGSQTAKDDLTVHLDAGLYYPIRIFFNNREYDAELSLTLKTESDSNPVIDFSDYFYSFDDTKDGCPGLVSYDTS', 'glycan array binding signal (z-score)', -0.104),
  ('GH98CBM51-1 (Streptococcus pneumoniae) (protein) MTYLSDMDWSSATHGDIDKTKTVQKDAPFTTGNKGEHTKISLLTSDDKVKYFDKGIGTVADSPSVISYDISGQGFEKFETYIGIDQSANSSRSDHAVVDRIEIEIDGKVVYSSSVTNPEGFRYNTQAQFISVTIPQNAKKISLKSFAGEHTWGDEVVFADAKLIKTVST', 'glycan array binding signal (z-score)', -0.188);
